System: U-2 OS
assay_overview: relative cell count vs DMSO (cell painting) (fraction of DMSO control); higher = more cells remaining (less cytotoxic)
experimental_context: 1.25 µM; 24 h
Label scheme for relative cell count: lower than 0.9 is not fulfilled, 0.9 and above is fulfilled.

[[record]]
mol_smiles = "C=C1[C@@H](C)[C@H]2[C@H](Cc3ccccc3)NC(=O)[C@]23[C@H](OC(C)=O)/C=C/[C@@](C)(O)C(=O)[C@@H](C)C/C=C/[C@H]3[C@@H]1O"
test_target = "U-2 OS"
class_name = "not fulfilled"

[[record]]
mol_smiles = "C[n+]1ccc(-c2cc[n+](CCCCCCCCCC[P+](c3ccccc3)(c3ccccc3)c3ccccc3)cc2)cc1.[I-].[I-].[I-]"
test_target = "U-2 OS"
class_name = "fulfilled"

[[record]]
mol_smiles = "O=C(O)CSc1cc(NS(=O)(=O)c2ccc(Br)cc2)c2ccccc2c1O"
test_target = "U-2 OS"
class_name = "fulfilled"

[[record]]
mol_smiles = "Cc1cc(-c2ccccc2)cc(C(=O)NNS(=O)(=O)c2ccccc2)c1F"
test_target = "U-2 OS"
class_name = "fulfilled"

[[record]]
mol_smiles = "CC(C)C[C@H](NC(=O)[C@H](CCc1ccccc1)NC(=O)CN1CCOCC1)C(=O)N[C@@H](Cc1ccccc1)C(=O)N[C@@H](CC(C)C)C(=O)[C@@]1(C)CO1"
test_target = "U-2 OS"
class_name = "not fulfilled"

[[record]]
mol_smiles = "CCOC(=O)C1=C(C)NC(=S)N[C@@H]1c1cccc(O)c1"
test_target = "U-2 OS"
class_name = "fulfilled"

[[record]]
mol_smiles = "C#CC[C@H](c1nc2cc(Cl)ccc2c(=O)n1Nc1ccccc1)N(CCCN)C(=O)c1cccc(Cl)c1F"
test_target = "U-2 OS"
class_name = "fulfilled"

[[record]]
mol_smiles = "Cc1csc(=NC2CCCCC2)n1/N=C/c1ccc(O)c(O)c1O"
test_target = "U-2 OS"
class_name = "fulfilled"

[[record]]
mol_smiles = "C[C@@H]1C[C@H]2O[C@@H]2/C=C\\C=C\\C(=O)Cc2c(Cl)c(O)cc(O)c2C(=O)O1"
test_target = "U-2 OS"
class_name = "not fulfilled"

[[record]]
mol_smiles = "Nc1ncn([C@H]2C[C@H](O)[C@@H](CO)O2)c(=O)n1"
test_target = "U-2 OS"
class_name = "fulfilled"

[[record]]
mol_smiles = "COC(=O)[C@]1(C)CC[C@]2(C)CC[C@]3(C)C4=CC=C5C(=CC(=O)C(O)=C5C)[C@]4(C)CC[C@@]3(C)[C@@H]2C1"
test_target = "U-2 OS"
class_name = "not fulfilled"

[[record]]
mol_smiles = "O=c1cc(N2CCOCC2)oc2c(-c3ccccc3)cccc12"
test_target = "U-2 OS"
class_name = "fulfilled"

[[record]]
mol_smiles = "CC(=O)O[C@H]1C(=O)[C@@]2(C)[C@H]([C@H](OC(=O)c3ccccc3)[C@]3(O)C[C@H](OC(=O)[C@H](O)[C@@H](NC(=O)c4ccccc4)c4ccccc4)C(C)=C1C3(C)C)[C@]1(OC(C)=O)CO[C@@H]1C[C@@H]2O"
test_target = "U-2 OS"
class_name = "not fulfilled"


----------
System: U-2 OS
assay_overview: relative cell count vs DMSO (cell painting) (fraction of DMSO control); higher = more cells remaining (less cytotoxic)
experimental_context: 5 µM; 24 h
Below: a set of entries, each annotated with reported relative cell count.
metric_name: relative cell count

[[record]]
mol_smiles = "COC1=C(OC)C(=O)c2ccccc2C1=O"
metric_name = "relative cell count"
reported = 0.489

[[record]]
mol_smiles = "CC(C)(N=NC(C)(C)C(=N)N)C(=N)N.Cl.Cl"
metric_name = "relative cell count"
reported = 1.01

[[record]]
mol_smiles = "CN(C)C/C=C/C(=O)Nc1cc2c(Nc3ccc(F)c(Cl)c3)ncnc2cc1O[C@H]1CCOC1"
metric_name = "relative cell count"
reported = 0.894

[[record]]
mol_smiles = "CCOc1cc2ncc(C#N)c(Nc3ccc(OCc4ccccn4)c(Cl)c3)c2cc1NC(=O)/C=C/CN(C)C"
metric_name = "relative cell count"
reported = 0.76

[[record]]
mol_smiles = "CCCCCCCc1ccc(CCc2cccc(O)c2C(=O)O)cc1"
metric_name = "relative cell count"
reported = 1.11

[[record]]
mol_smiles = "O=[N+]([O-])c1cc(Br)c2nsnc2c1Sc1ncnc2nc[nH]c12"
metric_name = "relative cell count"
reported = 0.205

[[record]]
mol_smiles = "CO[C@@H]1[C@H](N(C)C(=O)c2ccccc2)C[C@H]2O[C@]1(C)n1c3ccccc3c3c4c(c5c6ccccc6n2c5c31)C(=O)NC4"
metric_name = "relative cell count"
reported = 0.362

[[record]]
mol_smiles = "O=NN(CCCl)C(=O)NCCCl"
metric_name = "relative cell count"
reported = 0.946

[[record]]
mol_smiles = "CCCCCCCCCCCCCCCCCCOP(=O)([O-])OC1CC[N+](C)(C)CC1"
metric_name = "relative cell count"
reported = 1.05

[[record]]
mol_smiles = "COc1ccc(/C(Cl)=C(/C=O)c2ccc(OC)cc2)cc1"
metric_name = "relative cell count"
reported = 0.937


----------
Test system: U-2 OS
assay_overview: cell painting activity score (Mahalanobis distance from DMSO wells); higher = stronger morphological phenotype
experimental_context: 2.5 µM; 24 h
Below: a set of entries, each annotated with reported cell painting activity score.
metric_name: cell painting activity score

[[record]]
molecule = "Cn1nnnc1SC1=CS(=O)(=O)c2ccccc21"
test_target = "U-2 OS"
reported = 12

[[record]]
molecule = "O=S1(=O)CC(SCc2ccccc2)c2ccccc21 (centres undefined)"
test_target = "U-2 OS"
reported = 4.24

[[record]]
molecule = "O=C(O)CSc1cc(NS(=O)(=O)c2ccc(Br)cc2)c2ccccc2c1O"
test_target = "U-2 OS"
reported = 6.44

[[record]]
molecule = "C=CC(=O)N1CCC[C@@H](n2nc(-c3ccc(Oc4ccccc4)cc3)c3c(N)ncnc32)C1"
test_target = "U-2 OS"
reported = 6.19

[[record]]
molecule = "CCCCCCCc1ccc(CCc2cccc(O)c2C(=O)O)cc1"
test_target = "U-2 OS"
reported = 4.79

[[record]]
molecule = "Nc1ncn([C@H]2C[C@H](O)[C@@H](CO)O2)c(=O)n1"
test_target = "U-2 OS"
reported = 6.26

[[record]]
molecule = "O=C(O[C@@H]1Cc2c(O)cc(O)cc2O[C@@H]1c1cc(O)c(O)c(O)c1)c1cc(O)c(O)c(O)c1"
test_target = "U-2 OS"
reported = 4.25

[[record]]
molecule = "O=C(OC[C@H]1O[C@@H](OC(=O)c2cc(O)c(O)c(OC(=O)c3cc(O)c(O)c(O)c3)c2)[C@H](OC(=O)c2cc(O)c(O)c(OC(=O)c3cc(O)c(O)c(O)c3)c2)[C@@H](OC(=O)c2cc(O)c(O)c(OC(=O)c3cc(O)c(O)c(O)c3)c2)[C@@H]1OC(=O)c1cc(O)c(O)c(OC(=O)c2cc(O)c(O)c(O)c2)c1)c1cc(O)c(O)c(OC(=O)c2cc(O)c(O)c(O)c2)c1"
test_target = "U-2 OS"
reported = 6.15

[[record]]
molecule = "O=c1c(O)c(-c2ccc(O)c(O)c2)oc2cc(O)cc(O)c12"
test_target = "U-2 OS"
reported = 5.15


----------
Test system: U-2 OS
assay_overview: cell painting activity score (Mahalanobis distance from DMSO wells); higher = stronger morphological phenotype
experimental_context: 2.5 µM; 24 h
Below: a set of entries, each annotated with reported cell painting activity score.
metric_name: cell painting activity score

[[record]]
compound = "CCN(CCO)CCCOc1ccc2c(Nc3cc(CC(=O)Nc4cccc(F)c4)[nH]n3)ncnc2c1"
test_target = "U-2 OS"
reported = 14.3

[[record]]
compound = "CC[C@@H]1/C=C/C=C/C[C@H](C)[C@@H](O)[C@](C)(O)C(=O)[C@H](C)[C@@H](O)[C@H](C)C(=O)[C@H](C)[C@@H](O)[C@H](C)/C=C/C(=O)O[C@H]2[C@@H](C)[C@@H](CC1)O[C@@]1(CC[C@@H](C)[C@@H](C[C@H](C)O)O1)[C@@H]2C"
test_target = "U-2 OS"
reported = 14.5

[[record]]
compound = "O=C(CSC1CC(=O)N(c2cccc(Cl)c2)C1=O)Nc1ccc(Br)cc1 (stereo unspecified)"
test_target = "U-2 OS"
reported = 3.09

[[record]]
compound = "C[C@@H]1O[C@@H](O[C@H]2[C@H](O[C@H]3CC[C@@]4(C)[C@@H](CC[C@]5(C)[C@@H]4CC=C4[C@@H]6CC(C)(C)CC[C@]6(C(=O)O)CC[C@]45C)[C@]3(C)CO)OC[C@H](O[C@@H]3O[C@H](CO)[C@@H](O)[C@H](O)[C@H]3O)[C@@H]2O)[C@H](O)[C@H](O)[C@H]1O"
test_target = "U-2 OS"
reported = 31.1

[[record]]
compound = "C[C@@H]1Cc2c(Cl)cc(C(=O)N[C@@H](Cc3ccccc3)C(=O)O)c(O)c2C(=O)O1"
test_target = "U-2 OS"
reported = 4.76

[[record]]
compound = "Cc1cc(NC(=O)c2cccc(NC(=O)/C=C/CN(C)C)c2)ccc1Nc1nccc(-c2cccnc2)n1"
test_target = "U-2 OS"
reported = 11

[[record]]
compound = "CO[C@@H]1[C@H](N(C)C(=O)c2ccccc2)C[C@H]2O[C@]1(C)n1c3ccccc3c3c4c(c5c6ccccc6n2c5c31)C(=O)NC4"
test_target = "U-2 OS"
reported = 19.8

[[record]]
compound = "CN(C)C/C=C/C(=O)Nc1ccc(C(=O)Nc2cccc(Nc3ncc(Cl)c(-c4c[nH]c5ccccc45)n3)c2)cc1"
test_target = "U-2 OS"
reported = 23.3

[[record]]
compound = "CCc1c2c(nc3ccc(OC(=O)N4CCC(N5CCCCC5)CC4)cc13)-c1cc3c(c(=O)n1C2)COC(=O)[C@]3(O)CC.Cl"
test_target = "U-2 OS"
reported = 9.65

[[record]]
compound = "CC(C)=C[C@@H]1CO[C@]23C[C@]4(CO2)[C@H](CC[C@@H]2[C@@]5(C)CC[C@H](O[C@@H]6OC[C@H](O)[C@H](O[C@@H]7O[C@H](CO)[C@@H](O)[C@H](O)[C@H]7O)[C@H]6O[C@@H]6O[C@@H](CO)[C@H](O)[C@H]6O)C(C)(C)[C@@H]5CC[C@]24C)[C@H]3[C@@]1(C)O"
test_target = "U-2 OS"
reported = 6.77

[[record]]
compound = "C/C1=C/C(=O)O[C@@H]2C[C@@H](CC[C@H](C)/C=C\\CC1)O[C@@](O)([C@@H]1CSC(=O)N1)C2"
test_target = "U-2 OS"
reported = 15.4

